Species on record: Rattus norvegicus
Test: Total score (SS)
Form field: total score (SS) (one value per entry).
metric.name: total score (SS)

- CC(C)N1CC2CN(C(C)C)CC(C1)C2(C)C: -2
- CCCCN1CC2CN(CC3CCCCC3)CC(C1)C2(C)C: 4
- CCC1(C)C2CN(CC3CCCCC3)CC1CN(CC1CCCCC1)C2 (stereo unspecified): 4
- CCCCCCN1CC2CC(CN(C)C2)C1: -2
- CCCCCCN1CC2CN(CCCCCC)CC(C1)C2(CC)CCCC (stereo unspecified): -3
- CCCC1(C)C2CN(C(C)C)CC1CN(C(C)C)C2 (stereo unspecified): 5
- CCCCN1CC2CN(CCCC)CC(C1)C2(C)C: -1
- CCCC1(CCC)C2CN(C(C)C)CC1CN(C(C)C)C2: 2
- C=CCCN1CC2CN(CC(C)C)CC(C1)C2(CCC)CCC: 3
- CCCCC1(CCCC)C2CN(CC3CCCCC3)CC1CN(C(C)C)C2: 3
- CCCCN1CC2CN(CC(C)C)CC(C1)C2(C)C: 4

---

Test: Partition coefficient (logP)
Type: physicochemical
Details: octanol/water; read-out: logP
Listed here: items and their measured logP.
metric.name: logP

- CCC1(C)C2CN(CC3CCCCC3)CC1CN(CC1CCCCC1)C2 (configuration not stated): 6.65
- C=CCN1CC2CN(CC=C)CC(C1)C2(C)C: 2.7
- CCCCN1CC2CN(CC(C)C)CC(C1)C2(C)C: 3.7
- CCCCCCN1CC2CC(CN(C)C2)C1: 3.18
- C=CCCN1CC2CN(CCCC)CC(C1)C2(C)C: 3.42
- CCCN1CC2CN(CCC)CC(C1)C2(CC)CC: 3.85
- CCCCC1(CCCC)C2CN(CC3CCCCC3)CC1CN(C(C)C)C2: 7.61

---

Organism: Rattus norvegicus
Assay: Total score (SS)
Recorded total score (SS) by entry
metric.name: total score (SS)

• CCCCCCN1CC2CN(CCCCCC)CC(C1)C21CCCC1 = -1
• CCCCN1CC2CN(CCCC)CC(C1)C2(CCCC)CCCC = 1
• CCCCN1CC2CN(CCCC)CC(C1)C21CCC1 = 1
• CCCCCCN1CC2CN(C)CC(C1)C2(CC)CC = 2
• C=CCCN1CC2CN(CCC=C)CC(C1)C2(C)C = 4
• C=CCCN1CC2CN(CCC=C)CC(C1)C21CCCCC1 = 2
• C1CCC2(C1)C1CN(CC3CC3)CC2CN(CC2CC2)C1 = 5
• CCCCN1CC2CN(CCCC)CC(C1)C2(C)CC (configuration not stated) = 1
• C=CCCN1CC2CN(CCCC)CC(C1)C2(C)C = 1
• C1CCC(CN2CC3CN(CC4CCCCC4)CC(C2)C32CCCCC2)CC1 = 1
• CCCN1CC2CN(CCC)CC(C1)C2(CC)CC = 1
• CC(C)CN1CC2CN(C(C)C)CC(C1)C21CCCCC1 = 4

---

Test system: Rattus norvegicus
Assay: In vivo activity in anesthetized rat was measured as heart rate which provides information on in vivo bradycardic activity
Assay type: functional
metric.name: ED75 (µM/kg)

• CCCC1(C)C2CN(C(C)C)CC1CN(C(C)C)C2 (stereo not drawn) = 4.5
• CCCN1CC2CN(CCC)CC(C1)C2(CC)CC = 12
• CCCCN1CC2CN(CCCC)CC(C1)C21CCC1 = 4.7
• CC(C)CN1CC2CN(C(C)C)CC(C1)C21CCCCC1 = 5.7
• C1CCC2(C1)C1CN(CC3CC3)CC2CN(CC2CC2)C1 = 5.3
• CCCCN1CC2CN(CC(C)C)CC(C1)C2(C)C = 5.7
• CCCCN1CC2CN(CCCC)CC(C1)C2(C)CC (stereo not drawn) = 4.6
• CCCCN1CC2CN(CCCC)CC(C1)C2(CCCC)CCCC = 8.7

---

Organism: Cavia porcellus
Experiment: Selectivity quotient (F75/SR75)
Assay type: functional
Selectivity quotient strictly under 2 means Yes; at 2 or over means No.

• C=CCN1CC2CN(CC=C)CC(C1)C2(C)C = No
• CCCC1(CCC)C2CN(C(C)C)CC1CN(C(C)C)C2 = No
• CCCCCCN1CC2CN(CCCCCC)CC(C1)C2(CC)CCCC (configuration not stated) = No
• CCCCN1CC2CN(CCCC)CC(C1)C2(C)C = No
• CCCCN1CC2CN(CCCC)CC(C1)C2(C)CC (configuration not stated) = Yes
• C=CCCN1CC2CN(CCC=C)CC(C1)C21CCCCC1 = No
• CCC1(C)C2CN(CC3CCCCC3)CC1CN(CC1CCCCC1)C2 (configuration not stated) = Yes
• CCCCCCN1CC2CN(CCCCCC)CC(C1)C21CCCC1 = No
• CCCCC1(CCCC)C2CN(CC3CCCCC3)CC1CN(C(C)C)C2 = Yes
• C=CCCN1CC2CN(CCCC)CC(C1)C2(C)C = No
• CCCCN1CC2CN(CC3CCCCC3)CC(C1)C2(C)C = No
• C1CCC(CN2CC3CN(CC4CCCCC4)CC(C2)C32CCCCC2)CC1 = Yes

---

Documented logP across a set of compounds
Assay: Partition coefficient (logP)
Type: physicochemical
Conditions: octanol/water; read-out: logP
metric.name: logP

- C=CCCN1CC2CN(CC(C)C)CC(C1)C2(CCC)CCC: 5.32
- CCCCN1CC2CN(CCCC)CC(C1)C2(C)C: 3.88
- CCCCN1CC2CN(CCCC)CC(C1)C2(CCCC)CCCC: 7.03
- CCCC1(C)C2CN(C(C)C)CC1CN(C(C)C)C2 (configuration not stated): 3.53
- CCCCN1CC2CN(CC3CCCCC3)CC(C1)C2(C)C: 4.98
- C1CCC2(C1)C1CN(CC3CC3)CC2CN(CC2CC2)C1 [TEDISAMIL]: 4.19
- CC(C)CN1CC2CN(C(C)C)CC(C1)C21CCCCC1: 4.29
- CCCCCCN1CC2CN(CCCCCC)CC(C1)C2(CC)CCCC (configuration not stated): 8.26
- C=CCCN1CC2CN(CCC=C)CC(C1)C2(C)C: 3.13
- CCCCN1CC2CN(CCCC)CC(C1)C2(C)CC (configuration not stated): 4.37
- CCCCCCN1CC2CN(CCCCCC)CC(C1)C21CCCC1: 5.47
- CCCC1(CCC)C2CN(C(C)C)CC1CN(C(C)C)C2: 4.51

---

Species on record: Rattus norvegicus
Assay: Score value indicates selectivity against the undesired effect on diastolic blood pressure
Type: functional, Artery
So basically: is Score under -3? Then YES. Not under? Then NO.

* C=CCCN1CC2CN(CCC=C)CC(C1)C2(C)C | NO
* C=CCCN1CC2CN(CCC=C)CC(C1)C21CCCCC1 | YES
* CCCCN1CC2CN(CCCC)CC(C1)C2(C)CC (stereo not drawn) | YES
* CCCCCCN1CC2CN(CCCCCC)CC(C1)C21CCCC1 | YES
* CCCCCCN1CC2CN(C)CC(C1)C2(CC)CC | NO
* CCCCN1CC2CN(CC(C)C)CC(C1)C2(C)C | NO
* CCCCN1CC2CN(CC3CCCCC3)CC(C1)C2(C)C | NO
* CCCCN1CC2CN(CCCC)CC(C1)C2(C)C | YES

---

Species: Cavia porcellus
Test: Selectivity quotient (F75/SR75)
Assay type: functional
// label = criterion met if Selectivity quotient is not less than 40, otherwise criterion not met

• C1CCC2(C1)C1CN(CC3CC3)CC2CN(CC2CC2)C1 = criterion not met
• CN1CC2CN(C)CC(C1)C2(C)C = criterion not met
• C=CCCN1CC2CN(CC(C)C)CC(C1)C2(CCC)CCC = criterion met
• C=CCCN1CC2CN(CCC=C)CC(C1)C2(C)C = criterion met
• CCCCN1CC2CN(CCCC)CC(C1)C2(CCCC)CCCC = criterion not met
• CCCCN1CC2CN(CCCC)CC(C1)C21CCC1 = criterion met
• CC(C)CN1CC2CN(C(C)C)CC(C1)C21CCCCC1 = criterion not met
• CCCC1(C)C2CN(C(C)C)CC1CN(C(C)C)C2 (centres undefined) = criterion met
• CCCCCCN1CC2CC(CN(C)C2)C1 = criterion not met

---

Organism: Rattus norvegicus
Test: Score value indicates selectivity against the undesired effect on diastolic blood pressure
Assay type: functional, Artery
Measured Score accompanies every entry in the list below.
metric.name: Score

* CCCCCCN1CC2CC(CN(C)C2)C1 | -3
* C=CCCN1CC2CN(CCCC)CC(C1)C2(C)C | -4
* C1CCC2(C1)C1CN(CC3CC3)CC2CN(CC2CC2)C1 | 0
* CCCCN1CC2CN(CCCC)CC(C1)C21CCC1 | -5
* CCCN1CC2CN(CCC)CC(C1)C2(CC)CC | -3
* CCC1(C)C2CN(CC3CCCCC3)CC1CN(CC1CCCCC1)C2 (stereo not given) | 0
* CCCC1(C)C2CN(C(C)C)CC1CN(C(C)C)C2 (stereo not given) | -1
* C1CCC(CN2CC3CN(CC4CCCCC4)CC(C2)C32CCCCC2)CC1 | -2
* CC(C)CN1CC2CN(C(C)C)CC(C1)C21CCCCC1 | -1
* CCCCC1(CCCC)C2CN(CC3CCCCC3)CC1CN(C(C)C)C2 | -1
